Test system: LXRa homodimer (NR concentration 270 nM)
Experiment: PBM binding z-score (relative to random genomic background probes); higher = stronger binding; sequences stand for … in GC…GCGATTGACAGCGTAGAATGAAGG
Measured PBM binding z-score accompanies every entry in the list below.
Response field accepts a number only; no unit should be typed.

# count of solved cases: 5
| SEQUENCE_DATA | REPORTED |
| --- | --- |
| CGAACTAGGCCAGAACAGGACAGTGAAGGATGAT | -0.144 |
| ATCTCTAGGTAACAAGTGCAGTGAAAGAGAGGAC | -0.0829 |
| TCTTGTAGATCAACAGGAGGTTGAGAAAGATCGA | -0.188 |
| CCTTACGGGTCACTAACAGGTTATAGCATTTGGA | 0.54 |
| ATATGTAGGTTATCGGGTCCTTCAGTTTGCGCAT | 0.528 |

Task item: # return PBM binding z-score for CGTCCAAGGTCAAGGTCAGCGAAAGAGACTCGAA , test system: LXRa homodimer (NR concentration 270 nM)
Reply: 1.11

###

Tested on: PPARg:RXRa (NR concentration 180 nM, RXRa partner concentration 90 nM)
Experiment: PBM binding z-score (relative to random genomic background probes); higher = stronger binding; sequences stand for … in GC…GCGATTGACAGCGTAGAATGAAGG
Measured PBM binding z-score accompanies every entry in the list below.
Response field accepts a number only; no unit should be typed.

# count of solved cases: 2
| SEQUENCE_DATA | PBM binding z-score |
| --- | --- |
| TCTAGGTGGTCACGGAGGTCACACACGACGGGTA | 3.58 |
| ACAGACCGGTGAGTGAAGGTAACTCAGCTGGACG | 0.147 |

Task item: # return PBM binding z-score for GCTCGGAGGACACGGTCAGAGCTTTGTCCGTAGA , test system: PPARg:RXRa (NR concentration 180 nM, RXRa partner concentration 90 nM)
Reply: -0.859

###

Measured PBM binding z-score accompanies every entry in the list below.
Tested on: LXRb:RXRa (NR concentration 270 nM, RXRa partner concentration 90 nM)
Experiment: PBM binding z-score (relative to random genomic background probes); higher = stronger binding; sequences stand for … in GC…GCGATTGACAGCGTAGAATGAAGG
Response field accepts a number only; no unit should be typed.

# count of solved cases: 3
| SEQUENCE_DATA | REPORTED |
| --- | --- |
| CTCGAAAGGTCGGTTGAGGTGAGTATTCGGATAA | 1.32 |
| CCGTCTGGGGCATAAGGTTACCATAAGCCAGCCC | 0.847 |
| CATCAAAGTTCAACTAAGGTAACGTAAAGCACGC | 4.54 |

Task item: Provide only the value of recorded PBM binding z-score for CCAGACAGCTGAGAAGGTAACTCAGCCTCGATTA
Reply: -0.499

Task item: Provide only the value of recorded PBM binding z-score for CAATCTAGGTCAAGAGGTCAAAGTCCGCTTCCCG
Reply: 5.64

###

Test system: PPARg DBDmut:RXRa IVT, anti-PPARg (DBD mutation: PPARg1 K132A/R137A, NR concentration 270 nM, RXRa partner concentration 90 nM)
Test: PBM binding z-score (relative to random genomic background probes); higher = stronger binding; sequences stand for … in GC…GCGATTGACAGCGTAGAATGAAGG
// n strictly below 0.9 in PBM binding z-score; y otherwise

// known answers, use as guide
| SEQUENCE_DATA | LABEL |
| --- | --- |
| TAGCCTAGGTCATTGGGCCTGTATAGTACGCATC | n |
| TTACCAAGGTGAAAGGTCGCTGATGCACGCCTTG | n |
| CAAACTAGGACAAGGTCAAAGTCGGTTTGTGCCA | y |
| GCTAGCAGGCCATTTGGGTCACTCAATGACGGGC | n |
| ACTAGCTGGTCAGCTGAGGTCACACACAATTCGG | n |
| TCGAGTAGGTTAGGGGCATTAAGAATGGCGTCGA | n |
| CCTATCAGGCCAGGGTCACTCAAGCATTTCGCTT | n |
| CATCCAAGGTCAATGCTAGGTCAGTGAAAGCATT | n |

Task item: API: above_or_equal(metric=PBM binding z-score, cutoff=0.9) for item CCTACTGGGCCAAGGTCATTGAACAGTCAAAGCA
Reply: n

Task item: API: above_or_equal(metric=PBM binding z-score, cutoff=0.9) for item TCGAGTAGGTTAGGGGCATTCGGAATGGCGTCGA
Reply: n

Task item: API: above_or_equal(metric=PBM binding z-score, cutoff=0.9) for item AATACAGGTTCACTAGGCCAGAGTAGGTACGAAT
Reply: y
